- assay: TIMS collisional cross section (CCS, N2) of the lipid ion; higher = larger ion cross section
- protocol_conditions: sample type: HeLa; ionization mode: positive; one isomer drawn
quantity: TIMS collisional cross section (Å²)

CCCCC/C=C\C/C=C\CCCCCCCC(=O)OC[C@@H](COC(=O)CCCCCCCCCCCCCCC)OC(=O)CCCCCCC/C=C\CCCCCC [TG 16:0_16:1_18:2] (ion (formula + adduct): [C53H96O6+NH4] 1+) = 314.4
CCCCCC/C=C\CCCCCCCC(=O)O[C@H](COC(=O)CCCCCCCCCCCCCCC)COP(=O)([O-])OCC[N+](C)(C)C [PC 16:0_16:1] (ion (formula + adduct): [C40H78NO8P+H] 1+) = 282.63
CCCCCCCCCCCCCCCCC(=O)OC[C@@H](COC(=O)CCCCCCCCCCCC)OC(=O)CCCCCCCCCCCCCCC [TG 13:0_16:0_17:0] (ion (formula + adduct): [C49H94O6+NH4] 1+) = 308
CC/C=C\C/C=C\C/C=C\C/C=C\C/C=C\CCCC(=O)O[C@H](COCCCCCCCCCCCCCCCC)COP(=O)([O-])OCC[N+](C)(C)C [PC O- 16:0@_20:5] (ion (formula + adduct): [C44H80NO7P+H] 1+) = 287.7
CC/C=C\C/C=C\C/C=C\C/C=C\C/C=C\C/C=C\CCC(=O)OC[C@@H](COC(=O)CCC/C=C\C/C=C\C/C=C\C/C=C\CCCCC)OC(=O)CCCCC/C=C\C/C=C\C/C=C\C/C=C\C/C=C\CC [TG 20:4_22:5_22:6] (ion (formula + adduct): [C67H100O6+NH4] 1+) = 338.1
CCCCC/C=C\C/C=C\C/C=C\C/C=C\CCCC(=O)O[C@H](COC(=O)CCCCCCCCCCCCCCCCCC)COP(=O)(O)OCCN [PE 19:0_20:4@] (ion (formula + adduct): [C44H80NO8P+H] 1+) = 287.3
CCCCCCCCCCCCCCCCC(=O)OC[C@@H](COC(=O)CCCCCCCCCCCCCC)OC(=O)CCCCCCCCCCCCCCC [TG 15:0_16:0_17:0] (ion (formula + adduct): [C51H98O6+NH4] 1+) = 314.3
CCCCCCCC/C=C\CCCCCCCC(=O)OC[C@@H](COC(=O)CCCCCCCCCCCCCC)OC(=O)CCCCCCCCCCCCCCC [TG 15:0_16:0_18:1] (ion (formula + adduct): [C52H98O6+NH4] 1+) = 315.2
CCCCCCCC/C=C\CCCCCCCC(=O)O[C@H](COC(=O)/C=C\CCCCCCCCCCCCC)COP(=O)([O-])OCC[N+](C)(C)C [PC 16:1_18:1] (ion (formula + adduct): [C42H80NO8P+H] 1+) = 286.6
CCC/C=C\CCCCCCCC/C=C/[C@@H](O)[C@H](COP(=O)([O-])OCC[N+](C)(C)C)NC(=O)CCCCCCCCCCCCCCC [SM d18:2_16:0@] (ion (formula + adduct): [C39H77N2O6P+H] 1+) = 281.4

* * *

- assay: TIMS collisional cross section (CCS, N2) of the lipid ion; higher = larger ion cross section
- protocol_conditions: sample type: plasma; ionization mode: positive; one isomer drawn
quantity: TIMS collisional cross section (Å²)

CCCCC/C=C\C/C=C\CCCCCCCC(=O)O[C@H](COCCCCCCCCCCCCCCCC)COP(=O)([O-])OCC[N+](C)(C)C [PC O- 16:0@_18:2] (ion (formula + adduct): [C42H82NO7P+H] 1+) = 287.3
CCCCC/C=C\C/C=C\C/C=C\C/C=C\CCCC(=O)O[C@H](CO)COP(=O)([O-])OCC[N+](C)(C)C [LPC 20:4] (ion (formula + adduct): [C28H50NO7P+H] 1+) = 231.1
CCCCCC/C=C\CCCCCCCC(=O)OC[C@@H](COC(=O)CCCCCCCCCCCCCC)OC(=O)CCCCCCCCCCCCCCC [TG 15:0_16:0_16:1] (ion (formula + adduct): [C50H94O6+NH4] 1+) = 309.2
CCCCCCCCCCCCCCCCC(=O)OC[C@@H](COC(=O)CCCCCCCCCCCCCC)OC(=O)CCCCCCCCCCCCCCC [TG 15:0_16:0_17:0] (ion (formula + adduct): [C51H98O6+NH4] 1+) = 314.6
CCCC/C=C\CCCCCCCC(=O)OC[C@H](COC(=O)CCCCCCC/C=C\C/C=C\CCCCC)OC(=O)CCCCCCC/C=C\CCCCCCC [TG 14:1_17:1_18:2] (ion (formula + adduct): [C52H92O6+NH4] 1+) = 308.6
CCCCCCCCCCCCCCCCCCCCCC(=O)OC[C@H](CO)OC(=O)CCCCCCCCCCCCCCCCCCCCC [DG 22:0_22:0_0:0] (ion (formula + adduct): [C47H92O5+NH4] 1+) = 301.3
CCCCC/C=C\C/C=C\CCCCCCCC(=O)OC[C@@H](COC(=O)CCCCCCC/C=C\CCCCC)OC(=O)CCCCCCCCCCCCCCC [TG 15:1_16:0_18:2] (ion (formula + adduct): [C52H94O6+NH4] 1+) = 311
CCCCCCCCCCCCC/C=C/[C@@H](O)[C@H](CO[C@@H]1OC(CO)[C@@H](O[C@@H]2OC(CO)[C@H](O)[C@H](O)C2O)[C@H](O)C1O)NC(=O)CCCCCCCCCCCCCCC (some centres not stated) [GlcCer d18:1_16:0@] (ion (formula + adduct): [C46H87NO13+H] 1+) = 304.2
CCCCCCCC/C=C\C/C=C\CCCCC(=O)O[C@H](COC(=O)CCCCCCC/C=C\CCCCCCCC)COP(=O)([O-])OCC[N+](C)(C)C [PC 18:1_18:2] (ion (formula + adduct): [C44H82NO8P+H] 1+) = 289.8
CCCCCC/C=C\CCCCCCCC(=O)OC[C@H](CO)OC(=O)CCCCCCC/C=C\CCCCCCCC [DG 16:1_18:1_0:0] (ion (formula + adduct): [C37H68O5+NH4] 1+) = 258.75
CCCCC/C=C\C/C=C\CCCCCCCC(=O)OC[C@@H](COC(=O)CCCCCCC/C=C\CCCCCCC)OC(=O)CCCCCCC/C=C\C/C=C\CCCCC [TG 17:1_18:2_18:2] (ion (formula + adduct): [C56H98O6+NH4] 1+) = 318.3
CCCCCCCCCCCCCCCC(=O)O[C@H](CO)COP(=O)([O-])OCC[N+](C)(C)C [LPC 16:0] (ion (formula + adduct): [C24H50NO7P+H] 1+) = 231

* * *

- assay: TIMS collisional cross section (CCS, N2) of the lipid ion; higher = larger ion cross section
- protocol_conditions: sample type: plasma; ionization mode: positive; one isomer drawn
quantity: TIMS collisional cross section (Å²)

CCCCCCCCCCCCCCCC(=O)OC[C@@H](COC(=O)CCCCCCCCCCCC)OC(=O)CCCCCCCCCCCCC [TG 13:0_14:0_16:0] (ion (formula + adduct): [C46H88O6+NH4] 1+) = 298.4
CCCCCCCCCC/C=C\CCCCCCCCCC(=O)OC[C@@H](O)COP(=O)([O-])OCC[N+](C)(C)C [LPC 22:1_0:0] (ion (formula + adduct): [C30H60NO7P+H] 1+) = 246.6
CCCCCC/C=C\CCCCCCCC(=O)O[C@@H](COC(=O)CCCCCCC/C=C\CCCCCCC)COC(=O)CCCCCCCCCCCCCCC [TG 16:0_16:1_17:1] (ion (formula + adduct): [C52H96O6+NH4] 1+) = 313.2
CCCCCCCCCCCCCCCC(=O)OC[C@H](COP(=O)([O-])OCC[N+](C)(C)C)OC(=O)CCCCCCCCCCCCCCC [PC 16:0_16:0] (ion (formula + adduct): [C40H80NO8P+H] 1+) = 285.7

* * *

- assay: TIMS collisional cross section (CCS, N2) of the lipid ion; higher = larger ion cross section
- protocol_conditions: sample type: HeLa; ionization mode: positive; one isomer drawn
quantity: TIMS collisional cross section (Å²)

CC/C=C\C/C=C\C/C=C\C/C=C\C/C=C\C/C=C\CCC(=O)OC[C@@H](O)COP(=O)(O)OCCN [LPE 22:6] (ion (formula + adduct): [C27H44NO7P+H] 1+) = 218.95

(A) CCCCCCCC/C=C\CCCCCCCCCCCC(=O)OC[C@@H](COC(=O)CCCCCCCCCCCCCCCCC)OC(=O)CCCCCCCCCCC/C=C\CCCCCCCC [TG 18:0_22:1_22:1] (ion (formula + adduct): [C65H122O6+NH4] 1+)
(B) CCCCCCCCCCCCCCCCCC(=O)O[C@H](CO)COP(=O)([O-])OCC[N+](C)(C)C [LPC 18:0] (ion (formula + adduct): [C26H54NO7P+H] 1+)
Data request: Between A and B , whose recorded TIMS collisional cross section is greater? Select an item and report its label.
Data returned: A
